Each recorded value in this set is attributed to paper PMC11954892.

tested_on: NbUGT72AY1 (Nicotiana benthamiana)
Sequence (A0A8K1ZRH3 1-477): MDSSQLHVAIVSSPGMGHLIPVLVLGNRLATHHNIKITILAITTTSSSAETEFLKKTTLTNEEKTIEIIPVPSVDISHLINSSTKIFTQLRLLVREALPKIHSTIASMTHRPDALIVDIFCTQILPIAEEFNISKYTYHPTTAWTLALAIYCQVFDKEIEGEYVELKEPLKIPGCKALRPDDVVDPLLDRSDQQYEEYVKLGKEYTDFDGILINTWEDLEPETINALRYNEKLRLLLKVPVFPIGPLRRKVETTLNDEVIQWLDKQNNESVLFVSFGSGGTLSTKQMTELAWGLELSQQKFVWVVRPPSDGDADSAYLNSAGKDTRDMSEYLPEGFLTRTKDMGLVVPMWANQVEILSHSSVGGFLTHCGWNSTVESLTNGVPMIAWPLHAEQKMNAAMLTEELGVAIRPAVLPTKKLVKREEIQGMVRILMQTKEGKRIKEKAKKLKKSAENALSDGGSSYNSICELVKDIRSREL
endpoint_label: pKd
Interpret pKd as the negative base-10 log of the concentration measured in mol/L.

Data point: COc1cc2ccc(=O)oc2cc1O ; pKd = 5.35
